meta.source: patent US20050048071A1

Kindly supply the reported binding score (HLA-A2.1 fluorescence on T2 cells) values for the records listed here.
target: HLA-A2.1 MHC class I molecules on T2 cells (human); experiment: T2 cells pulsed with peptide, anti-HLA-A2.1 flow cytometry; Brefeldin A treatment: 2 hr

Observe how each entry below is paired with its result.
[[record]]
binder = "SHFLKMESL (Synthetic nonamer) [CD20 peptide SHFLKMESL (SEQ ID NO: 11)]"
reading = 218

[[record]]
binder = "SLNFIRAHT (Synthetic nonamer) [CD20 peptide SLNFIRAHT (SEQ ID NO: 9)]"
reading = 200

[[record]]
binder = "LLFFLLFLV [CD19 peptide LLFFLLFLV (SEQ ID NO: 5)]"
reading = 202

[[record]]
binder = "LLFLTPMEV (Synthetic nonamer) [CD19 peptide LLFLTPMEV (SEQ ID NO: 3)]"
reading = 924

[[record]]
binder = "LKMESLNFI (Synthetic nonamer) [CD20 peptide LKMESLNFI (SEQ ID NO: 10)]"
reading = 291


// batch mode: one binding score (HLA-A2.1 fluorescence on T2 cells) value per listed entry
1. RLLFFLLFL (Synthetic nonamer) [CD19 peptide RLLFFLLFL (SEQ ID NO: 1)]
2. TLAYLIFCL (Synthetic nonamer) [CD19 peptide TLAYLIFCL (SEQ ID NO: 2)]
3. FIRAHTPYI (Synthetic nonamer) [CD20 peptide FIRAHTPYI (SEQ ID NO: 8)]
4. AISGMILSI (Synthetic nonamer) [CD20 peptide AISGMILSI (SEQ ID NO: 7)]
5. SLFLGILSV (Synthetic nonamer) [CD20 peptide SLFLGILSV (SEQ ID NO: 6)]

stdout:
[202, 608, 215, 256, 703]
